compounds and their reported melting point
reported_property: melting point

{"columns": ["compound", "result"],
 "data": [
  ["NNC(=O)C1CC1", "92 to 94 °C"],
  ["CS(=O)(=O)Nc1ccc(Cl)c(N)c1", "156 to 158 °C"],
  ["Cn1nnc2cc(CCl)ccc21", "83 to 85 °C"],
  ["O=C(O)CC1Sc2ccccc2NC1=O (stereo not given)", "188 to 190 °C"],
  ["NNC(=O)NCC1CCCO1 (stereo not given)", "79 to 81 °C"],
  ["CC(=O)NC1CCC(N)CC1 (stereo not given)", "129 to 131 °C"],
  ["Nc1cc(Cl)cc(Br)c1OC(F)F", "86 to 88 °C"],
  ["CC1CN(c2ccc(NC(=O)CCl)cc2)CC(C)O1 (stereo not given)", "175 to 177 °C"],
  ["Cc1c(I)cccc1C(=O)O", "113 to 115 °C"],
  ["COc1ccc(OCC(=O)O)c(C=O)c1", "154 to 156 °C"],
  ["O=C(O)c1cnn2c1CCCC2", "214 to 216 °C"],
  ["COc1cccc(N2C(=O)NC(=O)C2=O)c1", "196 to 198 °C"],
  ["CN1CCc2ccc(N)cc2C1=O", "127 to 129 °C"],
  ["CCc1nc(C(=O)O)nn1-c1c(Cl)cccc1Cl", "197 to 199 °C"],
  ["CC1(c2cccc3ccccc23)NC(=O)NC1=O (stereo not given)", "105 to 107 °C"],
  ["Cn1ccnc1SCc1cccc(C(=O)O)c1", "157 to 159 °C"],
  ["CC(C)(C)c1ccc(OCC(=O)O)c(C(C)(C)C)c1", "< 17 °C"],
  ["CC(Cl)C(=O)Nc1ccc(Cl)c(C(F)(F)F)c1 (stereo not given)", "130 to 135 °C"],
  ["Nc1ccc(N2CCOCC2)cn1", "143 to 145 °C"],
  ["O=S(=O)(Cl)c1ccc(S(=O)(=O)C(F)F)cc1", "139 to 141 °C"],
  ["COc1cc(NC(C)=O)ccc1C(C)=O", "130 to 132 °C"],
  ["Nc1ccc(NC(=O)NCC2CCCO2)cc1 (stereo not given)", "141 to 143 °C"],
  ["Nc1ccc(CN2CCOCC2)cn1", "119 to 121 °C"],
  ["O=C(O)CCc1nc2ccccc2[nH]c1=O", "263 to 265 °C"],
  ["O=C(O)CCc1ccc(OC(F)F)cc1", "61 to 63 °C"]
]}

----------
{"columns": ["compound", "melting point"],
 "data": [
  ["O=C(O)c1nnn(-c2cccc(Br)c2)c1C(F)(F)F", "154 to 156 °C"],
  ["CSCCC(NC(=O)Cc1ccccc1)C(=O)O (stereo unspecified)", "101 to 103 °C"],
  ["CN(C)Cc1nnc(S)o1", "202 to 204 °C"],
  ["O=c1c2ccccc2nc(S)n1-c1nnc[nH]1", "234 to 236 °C"],
  ["O=C(O)c1cc(-c2ccco2)nn1-c1ccccc1", "159 to 161 °C"],
  ["COc1ccc(N)cc1-n1cnnn1", "139 to 141 °C"],
  ["O=S(=O)(Cl)c1cnn(Cc2ccccc2)c1", "57 to 59 °C"],
  ["CN(C)C(=O)Cc1ccc(N)cc1", "97 to 99 °C"],
  ["O=C(O)C1CCCN1c1ncnc2ccccc12 (stereo unspecified)", "139 to 141 °C"],
  ["Cc1ccc2c(CCN)c[nH]c2c1", "139 to 141 °C"],
  ["Cn1ccnc1CN1CCC(C(=O)O)CC1", "173 to 175 °C"]
]}
